Assay protocol: folding stability dG unfold from trypsin proteolysis; higher = more stable
Value kind: folding stability dG unfold (kcal/mol)
Report the figure in kcal/mol without appending any unit label.

A selection of reference data follows.
{"Seq": "SAGGSAGGSAGGTITIPIYLDDKWITITRIELSPPDGKIKIEFTFNNRPREFDIPIPPGASAGGSAGGSAGG [r7_477_TrROS]", "Value kind": "folding stability dG unfold", "Unit annotation": "kcal/mol", "Reading": 1.9}
{"Seq": "SAGGKPKEIVIEVELEVVEVNGEKYLVLKAKIIDKETNEVYEVTAVFNLKTGKLVGIEVKKLTVEELKSAGG [r13_772_TrROS_Hall]", "Value kind": "folding stability dG unfold", "Unit annotation": "kcal/mol", "Reading": 3.16}
{"Seq": "SAGGSAGGSAGPNWKKYTFTIFFPGYPFRVEIERPKDGPNAPLAIKIEDPNGKPMETFPISAGGSAGGSAGG [r11_223_TrROS]", "Value kind": "folding stability dG unfold", "Unit annotation": "kcal/mol", "Reading": 2.71}

Please examine the following record next.
Quick one: folding stability dG unfold for SAGGSAGGSAGGKDGYYKAIIELPGGEKREIVFKYEDFEEALKSLGIPLENVKIVKIEEGSAGGSAGGSAGG [r7_211_TrMRF] ?
3.3

---

Assay protocol: folding stability dG unfold (combined trypsin and chymotrypsin); higher = more stable
Value kind: folding stability dG unfold (kcal/mol)
Give the value, in units of kcal/mol, as a plain number.

Some entries whose results are on file:
{"Seq": "SAGGKKIRIVMTEEEIKKLAEALAKELNVEVKIVKVEKKTVFDKNGKPVKTYVVVEIEVKKLPPGVKLSAGG [r13_943_TrROS_Hall]", "folding stability dG unfold [kcal/mol]": 1.57}
{"Seq": "SAGGMLEEVAEELAKELNATAREFTTVGDVPRILLTFKVPGSSTYLEVTLTLPPDGSVERTTKPIAASAGGS [r16_433_JUSTAS]", "folding stability dG unfold [kcal/mol]": 1.3}
{"Seq": "SAGGSAGGSAGMKTRVTTFTYTEPVLLPDTGELRTVTTTVTFNKPLPEEPLFFTNTPNAGSAGGSAGGSAGG [r17_493_JUSTAS]", "folding stability dG unfold [kcal/mol]": -0.158}

Shift focus to the following entry.
I am curious: what folding stability dG unfold value has been reported for SAAVITLETENVTATSTLLEDGSVLVDVVEFYEDGYVSVVKAVIGPDGEIKVVERVVFPVPPPVPPPDASAG [r14_42_TrMRF] ?
2.36

---

Assay protocol: folding stability dG unfold (combined trypsin and chymotrypsin); higher = more stable
Assign class by folding stability dG unfold: not lower than 0.9 kcal/mol means YES; lower than 0.9 kcal/mol means NO.

Answered cases to consult:
{"Seq": "SAGGKVSVEVRGNGPGSYVALWLPGPGTVIAREFEDGDRFDDLPEDAEPSRVVFFGYDGVPEEFELGSAGGS [r8_487_TrMRF]", "Classification": "NO"}
{"Seq": "SAGGSAGGSAGMTPEEEVEYEIEVPDPNSDNLKTKIKLKFPVGTPEEEIKKKAEELAKKLSAGGSAGGSAGG [r11_516_JUSTAS]", "Classification": "YES"}
{"Seq": "SAGGSAGGWIKLDGKEVYIVIPDGNPEQIAKELKEQFPNGNIKPHPGQNAEEAAKKNKRVIWIPSAGGSAGG [r6_680_TrROS]", "Classification": "NO"}
{"Seq": "SAGGDPVRIFIMSGNGIFPIEIPLDPGEKVEFEMKFNGQEVTITITPGDGEIEIEMPPGFNIMALEPSAGGS [r16_761_TrROS]", "Classification": "YES"}
{"Seq": "MEIIKKLKIPDYEIVSVKTKKIGNKVIVVVVLKKEKEYYVIVAEINPETKEIKIISIKKLKENETLEDFISS [r1_383_TrMRF]", "Classification": "YES"}
{"Seq": "SAGGEVKYEHEGKNPDNGNMYKQEQEVPPVPIPPVIVIPAEDLDEFRELGIPENFKILPGNGWIVITSAGGS [r16_194_TrROS]", "Classification": "NO"}

Given the entry SAGGSAGGSASITYENGYATITLKVPEGTVRIVDLATNEVIEIKPGDTVTIRVKIPPPPPESAGGSAGGSAG [r3_185_TrROS_Hall] , answer whether its folding stability dG unfold meets or surpasses 0.9 kcal/mol.
YES

// query: SAGTITADDITEIEMQWDPGNGYVQIEIEFPNGYTVNAWMPNDKIEIEVWYPNGKKVEIEFEIKPPGASAGG [r19_121_TrROS]
YES

Same question for SAGGVDKGPPDAEVSREVLPRKLPNGKELLEEIRTRVLASGSLLVDRTIRDPNSDKVESEELVDPGASAGGS [r8_129_JUSTAS] please.
NO

// repeat for SAGGSAGGKYQEFEYMIMFPDGGMFRVKIEYSPNPGQVKIKIEFPGGEREITIPPGAPITIMPMSAGGSAGG [r6_927_TrROS] and report
YES

Also, SAGGSAGGSAGGDPIRVDDIEPNPDRLEIDIRNFGNGNQKKHTIPPGSPPKIKPGDYIRSAGGSAGGSAGGS [r10_834_TrROS] please.
NO

Record: SAGGGTRTINFDSPEDAEDAIEDWPDWDKVTISVPSNGEPQSIPLKIKPPPPPKYKRDENGKPEPEPDSAGG [r13_183_TrROS]
YES

Same again, this time with SMEILEMDIEEILSLLPEDIHPDVPYTLTVPGLEIRILDVAPVREEEGGPRPTTVIEVFLPDGPVVFPLESA [r9_279_TrMRF]
YES

---

Assay protocol: folding stability dG unfold (combined trypsin and chymotrypsin); higher = more stable
The following sequences are shown together with reported folding stability dG unfold values.
Answer format: numeric, kcal/mol implied, no suffix.

I'd like to know its folding stability dG unfold. The sequence in question is SAGGSAGGSAGDWIMFNFTYKDPGDPGKERTITILIPIPPPPPPEPKPVKDPNGNEGPVYSAGGSAGGSAGG [r11_419_TrROS]
1.99

Here is the next sequence: SAGGSAGGSAGKPTLKLVLKFDSPEQAKAAAEALAKAGYKVKVELKEYPDGLYLVVTVEPSAGGSAGGSAGG [r11_677_TrROS_Hall]
4.2

One more sequence: SAGGLKIPVGSAEDALKAFEAIEEPVLVRTKDRKFVRELKLEDIKELVEKGVEFEFVLPSELPEEERKESAG [r5_677_TrMRF]
0.566

Quick one: SAGGSAGGSAGGMTTTTVSRSPDGTITTTTTTYVPTPDGSVVPVTTTTTTTPIDPAALSSAGGSAGGSAGGS [r10_991_JUSTAS]
1.42

What would you report for SAGGSAGGSAGDDNDGKKKFPMTIKIPPIPIEIPPGMKITSWIPIRIPGGLEFPIIYITPSAGGSAGGSAGG [r11_388_TrROS] ?
1.03

Input SAGGSAGGWITPDAAKEFADKWGFDDVNVEVLDVDPNNNYVRVKVTARNPKNGNERPIGEFWFPSAGGSAGG [r6_699_TrROS]
1.2

Proceed to SAGGSMSVEVEVLAKVKLPNGEEVTFPVRVTYNPETGEVTVEIDLPKEVFERLKELYPDGIIAPEPSAGGSA [r2_409_TrMRF]
3.27

// next record SAGGSAGGSAGIRLDSLEEALKYIRKNFPPGRTVEIRVYDGDKPVEITVQVDENGDIKIVSAGGSAGGSAGG [r17_69_TrROS]
3.19

Likewise for SAGGSMVEVIVIDKDGKEHKILIPPELKPEEVAEKVKKFLEDEGYEVESIEIEELPEGFSKVIVNASAGGSA [r2_148_TrMRF] ?
1.68

For SAGGSPWIEVEIPFPPGMPADELADFIAEELDENGHDVKVDDVEQDPEEGYMKFRVRDGKSVEIPWSAGGSA [r2_242_TrROS] then?
-0.521

Queued: SAGSSMLDSLTVDTEVTLDPAKGTVLVKTTTTLPDGTVTRTVTTVTVEPLNPPPPPPPRFDPRTGEALESAG [r5_816_JUSTAS]
0.549

Next entry: SAGGSAGGSAGSTVTLTVDPDTNVATLTAIIGGKPVTATLTFIPNTGKARLPDGTWIDISSAGGSAGGSAGG [r11_395_TrMRF]
1.28

---

Assay protocol: folding stability dG unfold from trypsin proteolysis; higher = more stable
# key: entry, value: folding stability dG unfold
All answers are understood in kcal/mol, so give the number only.

May I ask what folding stability dG unfold has been recorded for SAMKAEVYILVYDKNGKLIAKIPIKAEEVLEDPEKFLETVKTVVEEFSGIGVKLKIYFPSTGKEVEIEASAG [r14_972_TrMRF] ?
4.2

Can you handle SAGGSAGGKKKYLVKITIKYVDKKTGKLVKEETITVEVSEEELEELLKKLPPGAEITKIEIYKLSAGGSAGG [r6_776_TrROS_Hall] next?
2.96

Also, SAGGSAGGSAGMTPGPAPRPKVTVEPSLSEVPEDDSIVTTTTVTFPDTGETTSSTTTSSASAGGSAGGSAGG [r17_31_JUSTAS] please.
0.337

Same thing, different sequence: SAGGSAGGSAGGMVVKIKVDGKTITLSAEELKKNKDLLKELEKKGYKIVSIEVFEPEEESAGGSAGGSAGGS [r10_396_TrROS_Hall]
1.57
